Cited source: patent US20250177391A1

Hi there, I'd appreciate the recorded solubility for every entry that follows.
Test: Solubility in pH 7.4 phosphate buffer
Format: physicochemical
Conditions: aqueous buffer
One number for each entry, in µM.

stdin: State, in one line, measured solubility of Cc1ccc(O)cc1Nc1ccnc(Nc2ccc(C(N)=O)cc2)n1
stdout: 770

stdin: State, in one line, measured solubility of COc1cc(Nc2nccc(Nc3ccc(N)cc3)n2)cc(S(C)(=O)=O)c1
stdout: 213

stdin: State, in one line, measured solubility of Cc1ccc(O)cc1Nc1ccnc(Nc2cccc(S(C)(=O)=O)c2)n1
stdout: 16

Kindly consider the entry below.
stdin: State, in one line, measured solubility of COc1ccc(S(N)(=O)=O)cc1Nc1nccc(N(C)c2ccc(N)cc2)n1
stdout: 13.3
